Biological target: human Leucyl-cystinyl aminopeptidase (rHsIRAP) (Homo sapiens, UniProt Q9UIQ6)
Construct: made in house; host or cells: Hi5 insect cells (baculovirus produced in sf9)
Sequence (Q9UIQ6 155-1025 limits assumed): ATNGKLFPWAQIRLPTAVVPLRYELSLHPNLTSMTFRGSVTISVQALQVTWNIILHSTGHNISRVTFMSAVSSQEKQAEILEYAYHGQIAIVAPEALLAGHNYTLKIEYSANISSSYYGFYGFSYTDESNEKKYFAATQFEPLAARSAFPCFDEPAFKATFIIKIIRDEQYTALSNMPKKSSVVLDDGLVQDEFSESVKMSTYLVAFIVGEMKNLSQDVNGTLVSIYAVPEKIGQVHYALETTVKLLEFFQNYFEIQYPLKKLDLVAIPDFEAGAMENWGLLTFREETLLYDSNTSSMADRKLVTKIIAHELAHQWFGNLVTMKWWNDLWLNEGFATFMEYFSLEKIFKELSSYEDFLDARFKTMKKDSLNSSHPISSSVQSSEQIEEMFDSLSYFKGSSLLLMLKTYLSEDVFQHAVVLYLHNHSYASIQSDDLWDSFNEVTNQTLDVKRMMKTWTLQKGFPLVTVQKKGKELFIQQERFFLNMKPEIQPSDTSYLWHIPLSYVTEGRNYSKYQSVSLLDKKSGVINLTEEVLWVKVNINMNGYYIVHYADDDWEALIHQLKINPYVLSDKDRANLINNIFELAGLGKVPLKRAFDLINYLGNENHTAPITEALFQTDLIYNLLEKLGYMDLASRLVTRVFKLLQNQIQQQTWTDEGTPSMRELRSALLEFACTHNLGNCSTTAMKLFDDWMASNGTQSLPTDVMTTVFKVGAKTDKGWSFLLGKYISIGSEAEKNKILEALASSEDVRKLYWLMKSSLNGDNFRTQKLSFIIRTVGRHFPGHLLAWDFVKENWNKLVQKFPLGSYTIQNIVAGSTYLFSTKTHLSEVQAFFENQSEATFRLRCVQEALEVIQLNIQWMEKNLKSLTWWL
Assay: rHsIRAP inhibition, L-AMC fluorigenic substrate
Type: biochemical
Protocol: The enzymatic activity of HsERAP1, HsERAP2 and HsIRAP was determined by following the time-dependent increase in fluorescence at 460 nm (excitation: 380 nm) of the fluorigenic substrates L-Leucine-7-amido-4-methyl coumarin (L-AMC; Sigma, Darmstatd, Germany) for HsERAP1 and HsIRAP and L-arginyl-7-amido-4-methyl coumarin (R-AMC; Sigma) for HsERAP2. […] The reaction was followed for 10 min at room temperature and the remaining enzymatic activity was calculated by measuring the slope of the time course. […]
Readings of pIC50 for the listed compounds
// field semantics: pIC50 = negative decimal log of concentration (mol/L)

* NC1CCc2c(Br)ccc(Br)c2CC1=O (centres unmarked) [21h] | 7.47

Now turn to the next compound.
Provide the documented pIC50 with human Leucyl-cystinyl aminopeptidase (rHsIRAP) (Homo sapiens, UniProt Q9UIQ6) as the system for NC1CCc2c(Br)ccc(-c3ccccc3)c2CC1=O (centres unmarked) [21i] 6.92
